Each recorded value in this set is attributed to patent US20260242478A1.

// reported Anti-PSMA Fab (SEQ ID NOs: 19, 20) signal for each item listed
molecular target: T1, Anti-PSMA Fab (SEQ ID NOs: 19, 20); test: phage binding ELISA; clonal phage supernatant on biotinylated PSMA Fab captured on neutravidin plates, anti-M13 HRP detection
T1 construct: Biotinylated PSMA Fab captured on neutravidin coated plates in the phage ELISA; also called 006 PSMA Fab
assay.readout: Anti-PSMA Fab (SEQ ID NOs: 19, 20) signal

[
  {
    "binder": "SAHMCIPPWMCLHT [Phage-1907]",
    "observed": 2.02
  },
  {
    "binder": "GDILCRPEWMCTGF [Phage-1910]",
    "observed": 2.01
  },
  {
    "binder": "EKIWCVPAWMCTWL [Phage-1918]",
    "observed": 1.99
  },
  {
    "binder": "ESIRCIPLWMCEGF [Phage-1913]",
    "observed": 2
  }
]
